# experimental protocol: recombinant UMI read abundance after kanamycin selection (control-corrected) (log10(CPM+1)); higher = more efficient recombination; extreme values may be limits of the assay; sequences stand for … in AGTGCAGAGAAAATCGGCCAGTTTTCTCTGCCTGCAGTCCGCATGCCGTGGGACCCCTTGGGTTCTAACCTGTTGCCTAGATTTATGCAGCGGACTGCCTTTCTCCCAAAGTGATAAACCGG…AGGTTGGTTTCACT; site = the 11-nt donor
Response field class: string, computed from recorded recombinant UMI read abundance (log10) by ranges Low: < 0.009; Mid: ≥ 0.009 and < 0.5; High: ≥ 0.5

Answered cases to consult:
CGCCGTACATGGACCGGTTTTCCCGGTAATCCGTATTTGCT (site TGCCGTACTAG) : Mid
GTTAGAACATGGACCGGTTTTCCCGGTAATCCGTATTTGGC (site GTTAGAACTGC) : High

query: Categorize the following entry: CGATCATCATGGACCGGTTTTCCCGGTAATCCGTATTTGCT (site CGAAGATCTAG)
result: Low

query: Categorize the following entry: AACCGTGCATGGACCGGTTTTCCCGGTAATCCGTATTTGAT (site AACCGTACTAT)
result: High

query: Categorize the following entry: GTTCGTGCATGGACCGGTTTTCCCGGTAATCCGTATTTGCA (site GTTCGAGCTTG)
result: High

query: Categorize the following entry: GCGTAAACATGGACCGGTTTTCCCGGTAATCCGTATTTGCT (site GCGCAAACTAG)
result: High

query: Categorize the following entry: CGAAAGGCATGGACCGGTTTTCCCGGTAATCCGTATTTGCT (site GGAAAGGCTAG)
result: Low

====

Reported recombinant UMI read abundance (log10) is given for each of the following sequences.
# experimental protocol: recombinant UMI read abundance after kanamycin selection (control-corrected) (log10(CPM+1)); higher = more efficient recombination; extreme values may be limits of the assay; sequences stand for … in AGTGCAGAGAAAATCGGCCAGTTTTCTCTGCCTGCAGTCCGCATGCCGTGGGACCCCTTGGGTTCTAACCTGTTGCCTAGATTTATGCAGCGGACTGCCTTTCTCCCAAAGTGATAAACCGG…AGGTTGGTTTCACT; site = the 11-nt donor
Give the figure only, with no unit attached.

Use the examples below as a reference point.
AGCTCATCATGGACCGGTTTTCCCGGTAATCCGTATTTGGG (site AGCTCAGCTCC) : 0.0292
AATGTGTCATGGACCGGTTTTCCCGGTAATCCGTATTTGAT (site AATGTGTCTAT) : 1.66

query: // recombinant UMI read abundance (log10) lookup, key: ATAAACTCATGGACCGGTTTTCCCGGTAATCCGTATTTGCG (site ATAAACTCTCG)
result: 3.23

query: // recombinant UMI read abundance (log10) lookup, key: CACTCCTCATGGACCGGTTTTCCCGGTAATCCGTATTTGCC (site CACTCCACTGG)
result: 0.838

query: // recombinant UMI read abundance (log10) lookup, key: ACACGAACATGGACCGGTTTTCCCGGTAATCCGTATTTGTG (site ACACGAACTTA)
result: 0.766

query: // recombinant UMI read abundance (log10) lookup, key: CAATTGCCATGGACCGGTTTTCCCGGTAATCCGTATTTGCT (site CAATTCCCTAG)
result: 0

query: // recombinant UMI read abundance (log10) lookup, key: GTAAAATCATGGACCGGTTTTCCCGGTAATCCGTATTTGCA (site GTAAAATCTTG)
result: 1.81

query: // recombinant UMI read abundance (log10) lookup, key: ACTATTGCATGGACCGGTTTTCCCGGTAATCCGTATTTGGT (site ACTAATGCTAC)
result: 0.108

query: // recombinant UMI read abundance (log10) lookup, key: ACTAGTACATGGACCGGTTTTCCCGGTAATCCGTATTTGAG (site ACTAGTACTCT)
result: 1.35

====

# experimental protocol: recombinant barcode read abundance after kanamycin selection (control-corrected) (log10(CPM+1)); higher = more efficient recombination; sequences stand for … in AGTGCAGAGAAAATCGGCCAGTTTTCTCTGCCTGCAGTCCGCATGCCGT…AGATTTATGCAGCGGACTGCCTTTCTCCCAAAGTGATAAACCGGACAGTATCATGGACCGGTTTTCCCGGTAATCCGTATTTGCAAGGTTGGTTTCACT; site = the 11-nt target
measured property: recombinant barcode read abundance (log10)
Give the figure only, with no unit attached.

query: // recombinant barcode read abundance (log10) lookup, key: TCCCAGTCTTGGGTTCTAACCTGTTGCGT (site TCCCAGTCTAC)
result: 2.59

query: // recombinant barcode read abundance (log10) lookup, key: CTCTAGCCTTGGGTTCTAACCTGTTGCAT (site GTCCAGCCTAT)
result: 0

query: // recombinant barcode read abundance (log10) lookup, key: CGTCAACCTTGGGTTCTAACCTGTTGCGT (site CGTGAACCTAC)
result: 0.0619

query: // recombinant barcode read abundance (log10) lookup, key: CCGTGGACTTGGGTTCTAACCTGTTGCCT (site CCGTGGCCTAA)
result: 0.254

query: // recombinant barcode read abundance (log10) lookup, key: AGCGGGCCTTGGGTTCTAACCTGTTGCCT (site AGCGGGCCTAG)
result: 0.313

query: // recombinant barcode read abundance (log10) lookup, key: GGGGAAGCTTGGGTTCTAACCTGTTGCCT (site GCGGAAGCTAG)
result: 0.343

query: // recombinant barcode read abundance (log10) lookup, key: TCACGTCCTTGGGTTCTAACCTGTTGCAT (site TCACGTCCTAG)
result: 0.745

query: // recombinant barcode read abundance (log10) lookup, key: AGATCCACTTGGGTTCTAACCTGTTGCCT (site GGATCCACTAG)
result: 0.0847

query: // recombinant barcode read abundance (log10) lookup, key: CACTTAGCTTGGGTTCTAACCTGTTGCCT (site CACTTAACTAG)
result: 0.559

query: // recombinant barcode read abundance (log10) lookup, key: GTTCAGACTTGGGTTCTAACCTGTTGCTT (site CCAAGTCCTTG)
result: 0.284

====

# experimental protocol: recombinant UMI read abundance after kanamycin selection (control-corrected) (log10(CPM+1)); higher = more efficient recombination; extreme values may be limits of the assay; sequences stand for … in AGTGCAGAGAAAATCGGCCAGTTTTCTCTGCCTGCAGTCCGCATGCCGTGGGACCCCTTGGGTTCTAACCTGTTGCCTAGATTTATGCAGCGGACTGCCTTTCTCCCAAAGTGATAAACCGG…AGGTTGGTTTCACT; site = the 11-nt donor
Reported recombinant UMI read abundance (log10) is given for each of the following sequences.
Give the figure only, with no unit attached.

Use the examples below as a reference point.
GGCCTAGCATGGACCGGTTTTCCCGGTAATCCGTATTTGTT (site GGCCTAGCTAA) : 0.00233
TTCGCTTCATGGACCGGTTTTCCCGGTAATCCGTATTTGTG (site TTCGCTTCTCA) : 0
AGTAAGACATGGACCGGTTTTCCCGGTAATCCGTATTTGCC (site AGTAAGACTGG) : 2.13
CCGTTAGCATGGACCGGTTTTCCCGGTAATCCGTATTTGCG (site CCGTTAGCTCG) : 0.184

Kindly review the next sequence as well.
query: // recombinant UMI read abundance (log10) lookup, key: AGCCGAGCATGGACCGGTTTTCCCGGTAATCCGTATTTGTT (site AGCCGAGCTAA)
result: 0.837

====

# experimental protocol: recombinant UMI read abundance after kanamycin selection (control-corrected) (log10(CPM+1)); higher = more efficient recombination; extreme values may be limits of the assay; sequences stand for … in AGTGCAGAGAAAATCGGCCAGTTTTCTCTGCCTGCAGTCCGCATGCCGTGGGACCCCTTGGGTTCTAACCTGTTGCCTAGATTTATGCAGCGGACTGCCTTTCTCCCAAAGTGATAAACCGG…AGGTTGGTTTCACT; site = the 11-nt donor
measured property: recombinant UMI read abundance (log10)

query: // recombinant UMI read abundance (log10) lookup, key: CACAAACCATGGACCGGTTTTCCCGGTAATCCGTATTTGGT (site TACAAACCTAC)
result: 0

query: // recombinant UMI read abundance (log10) lookup, key: CCACGAACATGGACCGGTTTTCCCGGTAATCCGTATTTGTC (site GCACGAACTGA)
result: 0

query: // recombinant UMI read abundance (log10) lookup, key: AATTATGCATGGACCGGTTTTCCCGGTAATCCGTATTTGGA (site ACTTATGCTTC)
result: 0.937

query: // recombinant UMI read abundance (log10) lookup, key: CGATCTTCATGGACCGGTTTTCCCGGTAATCCGTATTTGCT (site CGATCTTCTAG)
result: 0.601

query: // recombinant UMI read abundance (log10) lookup, key: CGTTTGGCATGGACCGGTTTTCCCGGTAATCCGTATTTGCT (site CGTTTGGCTAA)
result: 0.00833

query: // recombinant UMI read abundance (log10) lookup, key: TTTGTGGCATGGACCGGTTTTCCCGGTAATCCGTATTTGCT (site TTTGGGGCTAG)
result: 0.022

query: // recombinant UMI read abundance (log10) lookup, key: TTCGGCACATGGACCGGTTTTCCCGGTAATCCGTATTTGAG (site TTCGGCACTCT)
result: 0.00333

query: // recombinant UMI read abundance (log10) lookup, key: CCTAATACATGGACCGGTTTTCCCGGTAATCCGTATTTGTC (site CCTAATACTGA)
result: 0
